Assay: Metabolic stability in human liver microsome assessed as half life
Assay type: ADME
Settings: liver microsomes
parameter_measured: half-life (min)

> print(dat)
                            molecule.smiles  readout.number
1  O=C(Nc1ccc(-c2nc3cc(C(F)(F)F)ccc3[nH]2)cc1)c1cc(CNC(=O)C2(C(F)(F)F)CCC2)ccc1Cl             4.4
2  CC(C)(C(=O)NCc1ccc(Cl)c(C(=O)Nc2ccc(Cc3nc4cc(C(F)(F)F)ccc4[nH]3)cc2)c1)C(F)(F)F            51.2
3  O=C(Nc1ccc(-c2nc3cc(C(F)(F)F)ccc3[nH]2)cc1)c1cc(CNC(=O)C2(C(F)(F)F)CC2)ccc1Cl            30.7
4  CC(C)(C)C(=O)NCc1ccc(Cl)c(C(=O)Nc2ccc(-c3nc4cc(C(F)(F)F)ccc4[nH]3)cc2)c1             5.6
5  CC(C)(C(=O)NCc1ccc(Cl)c(C(=O)Nc2ccc(-c3nc4cc(C(F)(F)F)ccc4[nH]3)cc2)c1)C(F)(F)F             6.8

----------
Test: AUC (0 to infinity) in guinea pig at 20 mg/kg, po
Assay type: ADME, organism-based, Cavia porcellus
Details: in vivo
parameter_measured: AUC(0-inf) (ng·h/mL)

> print(dat)
                            molecule.smiles  parameter.measured  units.symbol  readout.number
1  O=C(Nc1ccc(-c2nc3cc(C(F)(F)F)ccc3[nH]2)cc1)c1cc(CNC(=O)C2(C(F)(F)F)CC2)ccc1Cl          AUC(0-inf)       ng·h/mL           13800
2  O=C(Nc1ccc(-c2nc3cc(C(F)(F)F)ccc3[nH]2)cc1)c1cc(CNC(=O)C2(C(F)(F)F)CCC2)ccc1Cl          AUC(0-inf)       ng·h/mL             620
